The values you see were collected from ChEMBL document CHEMBL5365394.

- Test system: Cryptococcus neoformans
- assay-protocol: Synergistic antifungal activity against Cryptococcus neoformans ATCC 32719 assessed as fluconazole MIC incubated for 24 hrs in by checkerboard broth microdilution method
- Assay type: functional
property-measured: MIC (µg/mL)
Give a bare numeral; the unit µg/mL is implied.

Bench note: what MIC did Cc1ccc([N+](=O)[O-])cc1NC(=O)/C=C/C(=O)Nc1ccc2c(c1)C(=O)NC1(CCSC1)N2 (stereo not given) show?
2

May I ask what MIC has been recorded for O=C(/C=C/C(=O)Nc1ccc(Cl)cc1Cl)Nc1ccc2c(c1)C(=O)NC1(CCSC1)N2 (stereo not given) ?
2

Recorded MIC of O=C(/C=C/C(=O)Nc1ccc2c(c1)C(=O)NC1(CCSC1)N2)Nc1ccc(Br)cc1 (stereo not given) , please.
2

Given the compound O=C(/C=C/C(=O)Nc1ccccc1[N+](=O)[O-])Nc1ccc2c(c1)C(=O)NC1(CCSC1)N2 (stereo not given) , what is its reported MIC?
0.5

For the compound O=C(/C=C/C(=O)Nc1ccc2c(c1)C(=O)NC1(CCSC1)N2)Nc1ccc([N+](=O)[O-])cc1 (stereo not given) , what MIC is on record?
2

====

Give measured fractional inhibitory concentration index (FICI) for each item. Keep answers brief.
- System: Aspergillus flavus
- assay-protocol: Additive antifungal activity against Aspergillus flavus ATCC 16870 assessed as fractional inhibitory concentration index incubated for 24 hrs in presence of polyoxin B by checkerboard broth microdilution method
- Format: functional
Write the number on its own, no unit after it.

Look up fractional inhibitory concentration index (FICI) for this compound: O=C(/C=C/C(=O)Nc1ccccc1[N+](=O)[O-])Nc1ccc2c(c1)C(=O)NC1(CCSC1)N2 (centres undefined)
1.125

Request the reported fractional inhibitory concentration index (FICI) associated with Cc1ccc([N+](=O)[O-])cc1NC(=O)/C=C/C(=O)Nc1ccc2c(c1)C(=O)NC1(CCSC1)N2 (centres undefined)
1.125

Need fractional inhibitory concentration index (FICI) of O=C(/C=C/C(=O)Nc1ccc(Cl)cc1Cl)Nc1ccc2c(c1)C(=O)NC1(CCSC1)N2 (centres undefined) , thanks.
2

Quick check: fractional inhibitory concentration index (FICI) of O=C(/C=C/C(=O)Nc1ccc2c(c1)C(=O)NC1(CCSC1)N2)Nc1ccc(Br)cc1 (centres undefined) ?
1.125

====

- assay-protocol: Cytotoxicity against human A549 cells assessed as cell viability at 8 ug/ml incubated for 24 hrs by CCK-8 assay relative to control
- Assay type: toxicity, cell-based
- condition-summary: at 8 µg/mL, read-out: Activity
property-measured: viability at 24 h, 8 ug/ml (%)
Please state the figure in %; there is no need to write the unit.

What value of viability at 24 h, 8 ug/ml has been recorded for this entry: NC(=O)OC[C@H](O)[C@@H](O)[C@H](N)C(=O)N[C@H](C(=O)O)[C@H]1O[C@@H](n2cc(CO)c(=O)[nH]c2=O)[C@H](O)[C@@H]1O [POLYOXIN B]
98.7

What value of viability at 24 h, 8 ug/ml has been reported for the following molecule? O=C(/C=C/C(=O)Nc1ccc2c(c1)C(=O)NC1(CCSC1)N2)Nc1ccc([N+](=O)[O-])cc1 (configuration not stated)
94.3

====

- Test system: Candida albicans
- assay-protocol: Antifungal activity against Candida albicans ATCC 76615 assessed as inhibition of cell wall synthesis incubated for 24 hrs in absence of sorbitol
- Type: functional
property-measured: MIC (µg/mL)
Give the value, in units of µg/mL, as a plain number.

# get_value(readout='MIC', item= O=C(/C=C/C(=O)Nc1ccc2c(c1)C(=O)NC1(CCSC1)N2)Nc1ccc([N+](=O)[O-])cc1 (stereo unspecified) )
4

Bench note: what MIC did O=C(/C=C/C(=O)Nc1ccccc1[N+](=O)[O-])Nc1ccc2c(c1)C(=O)NC1(CCSC1)N2 (stereo unspecified) show?
8

GET /values?readout=MIC&item= O=C(/C=C/C(=O)Nc1ccc2c(c1)C(=O)NC1(CCSC1)N2)Nc1ccc(Br)cc1 (stereo unspecified)
16

What does the record list as MIC for NC(=O)OC[C@H](O)[C@@H](O)[C@H](N)C(=O)N[C@H](C(=O)O)[C@H]1O[C@@H](n2cc(CO)c(=O)[nH]c2=O)[C@H](O)[C@@H]1O [POLYOXIN B] ?
8

Form field: reported MIC of O=C(/C=C/C(=O)Nc1ccc(Cl)cc1Cl)Nc1ccc2c(c1)C(=O)NC1(CCSC1)N2 (stereo unspecified)
16

Fill in the blank: the reported MIC of Cc1ccc([N+](=O)[O-])cc1NC(=O)/C=C/C(=O)Nc1ccc2c(c1)C(=O)NC1(CCSC1)N2 (stereo unspecified) is ____.
8
